system: A549; experiment: Cytotoxicity against human A549 cells assessed as inhibition of cell growth by CCK-8 assay; format: functional, cell-based
measurement label: IC50

Please state, for each entry, its recorded IC50.
1. C/C(=C\[C@@H]1OC(=O)[C@](O)([C@@H]2CC[C@]34C[C@]23C=C[C@@H]2[C@@]3(C)CC=C(/C=C/c5ccccc5)C(C)(C)[C@@H]3C[C@@H](O)[C@]24C)[C@H]1O)CO
2. C/C(=C\[C@H]1C[C@@](O)([C@@H]2CC[C@]34C[C@]23CC[C@@H]2[C@@]3(C)Cc5oc(-c6ccccc6)cc5C(C)(C)[C@@H]3C[C@H](O)[C@]24C)C(=O)O1)CO
3. COc1ccc([C@H]2C=C3[C@@H](C[C@]4(C)[C@H]5C=C[C@]67C[C@]6(CC[C@H]7[C@H]6CO[C@@H](/C=C(\C)CO)[C@@H]6O)[C@]5(C)[C@H](O)C[C@H]4C3(C)C)OO2)cc1

Result:
3.8 µM
> 10 µM
> 10 µM
